system-tested: UniProtKB Q13627
pIC50: −log10 of the molar value.
reported-property: pIC50

> print(dat)
                               input.smiles     system.tested  obs.value
1  O=C1C=C(c2ccc(O)c(O)c2O)C(=O)c2c(O)ccc(O)c21  UniProtKB Q13627       4.67
